Experiment: NCI Yeast Anticancer Drug Screen. Data for the sgs1 mgt1 strain (AID 161);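 note: 0% = growth of cultures given vehicle only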
Details: S. cerevisiae sgs1 mgt1 strain, at 50.0 µM, stronger effect = higher value
This is part of a sample that, as a whole, favours compounds with a hit. Of some 79,000 tested, about 15% had one in any assay.
Quantity: growth inhibition (%)
Write the answer as a number in %, unit excluded.

GET /value?item= `CCC(CC)OC(=O)Nc1cccc2ccccc12` &field=growth inhibition returns -5.75

GET /value?item= `c1ccc(-c2nc3ccccc3nc2-c2ccc(-c3nc4ccccc4nc3-c3ccccc3)cc2)cc1` &field=growth inhibition returns -9

GET /value?item= CCC(=O)N1C(=O)OCC1C(C)C (stereo not given) &field=growth inhibition returns -22.3

GET /value?item= `[O-]c1c[n+](-c2cc(Cl)ccc2Cl)no1` &field=growth inhibition returns -3.4

GET /value?item= COc1ccc2ccccc2c1C1OC(=O)c2ccccc21 (stereo not given) &field=growth inhibition returns 51.7

GET /value?item= OCC(O)C1OC(n2cnc3c(=S)nc[nH]c32)C(O)C1O (stereo not given) &field=growth inhibition returns -3.8

GET /value?item= `C/C=C/C1N(C)CCCN1C` &field=growth inhibition returns -7.25

GET /value?item= `Cc1cc(C)c([N+](=O)[O-])c(N)n1` &field=growth inhibition returns -5.85

GET /value?item= `CCOC(=O)C1=NN(c2ccccc2)C(=O)/C1=C\N1C(=S)NC(=O)/C1=C\c1cccc([N+](=O)[O-])c1` &field=growth inhibition returns 1.25

GET /value?item= `Cc1ccc(S(=O)(=O)c2c(N)c3nc4ccccc4n3c3nc4ccccc4nc23)cc1` &field=growth inhibition returns -5.2

More entries:
GET /value?item= O=C(CCl)OC1CCCCC1C1CCCCC1 (stereo not given) &field=growth inhibition returns 39.3

---

Experiment: NCI Yeast Anticancer Drug Screen. Data for the bub3 strain (AID 167)
Conditions: S. cerevisiae bub3 mutant strain, at 50.0 µM
This is part of a sample that, as a whole, favours compounds with a hit. Of some 79,000 tested, about 15% had one in any assay. The source made the active and inactive calls. Rule as the data show it: active = growth inhibition above about 70%; inactive = the rest.
Select the matching outcome among label 1 = active, label 0 = inactive

// return assay outcome for `CCCCCCCC(=O)Oc1ccccc1` label 0

// return assay outcome for O=S1(=O)CC(N2CCOCC2)C2=C(O1)c1sc(-c3ccccc3)nc1CC2 (configuration not stated) label 0

// return assay outcome for `C=C(C)C(=O)OCCn1c(=O)c2c(ncn2C)n(C)c1=O` label 0

// return assay outcome for COc1cc2c(cc1OC)[C@H]1C(COC(=O)c3ccccc3)CSC(=Nc3ccccc3)N1CC2 (some centres not stated) label 0

// return assay outcome for `COc1ccc(O)c(/C=N\N=C\c2cc(OC)ccc2O)c1` label 0

// return assay outcome for `c1ccc2c(c1)C1OC2c2ccccc21` label 0

// return assay outcome for `C/C(C=C(C#N)C#N)=C\c1ccc(F)cc1` label 0

// return assay outcome for `NC(=S)N/N=C/C=C/c1ccco1` label 0

Next compound, please.
// return assay outcome for CCC1C[N+]2(C)CCc3cc(OC)c(OC)cc3C2CC1=O (configuration not stated) label 0

---

Test: NCI Yeast Anticancer Drug Screen. Data for the mec2-1 strain (AID 157)
Conditions: S. cerevisiae mec2-1 strain, at 50.0 µM
About 79,000 compounds went through this panel and 15% of them were active in at least one assay; those are over-represented in the sample as a whole. The source made the active and inactive calls. Rule as the data show it: active = growth inhibition above about 70%; inactive = the rest.
Select the matching outcome among active, inactive

// return assay outcome for `CCc1ccc(CC(=S)N2CCOCC2)cc1` inactive

// return assay outcome for CC1(C)CCC2(C)CCC3(C)C(=CCC4C5(C)CCC(O)C(C)(C)C5CCC43C)C2C1 (configuration not stated) inactive

// return assay outcome for `CC(C)N=C(NC#N)NS(=O)(=O)c1cnccc1Nc1ccc(Cl)cc1` inactive

// return assay outcome for `CCCCCCCCCCCCOc1ccccn1` inactive

// return assay outcome for CCCC(O)C(C)C(O)CC (configuration not stated) inactive

More entries:
// return assay outcome for `O=C(O)c1sccc1-c1cccc2ccccc12` inactive

// return assay outcome for `CCc1cc2c(cc1C(=O)CCN1CCCC1)C(C)(C)CCC2(C)C` active

// return assay outcome for COC(=O)/C(=N/O)C(C(=O)C=C(C)C)C(=O)C(=O)Nc1nc2ccc([N+](=O)[O-])cc2s1 (configuration not stated) inactive

// return assay outcome for COC(=O)/C(=N\NC(C)(C)C)C(C(=O)OC)C(=O)C(=O)Nc1cc(Cl)ccc1Cl (configuration not stated) inactive

// return assay outcome for `O=c1[nH]nc(SCc2ccccc2)c(=O)n1C(c1ccccc1)c1ccccc1` inactive

// return assay outcome for Cc1cc2nn(C3CCCCO3)nc2cc1C (configuration not stated) inactive

---

Assay: NCI Yeast Anticancer Drug Screen. Data for the mec2-1 strain (AID 157)
Conditions: S. cerevisiae mec2-1 strain, at 50.0 µM, stronger effect = higher value
The panel holds about 79,000 compounds, 15% with a hit somewhere; the sample as a whole holds those more often.
Each entry below carries its reported growth inhibition.
Write the answer as a number in %, unit excluded.

GET /value?item= CCOC(=O)C1CN(CCc2ccccc2)CCC1=O (stereo unspecified) &field=growth inhibition returns -8.65

GET /value?item= CCOC(C)(C(=O)O)c1cccc2ccccc12 (stereo unspecified) &field=growth inhibition returns -11

More entries:
GET /value?item= O=C(CCC(NC(=O)OCc1ccccc1)C(=O)OCc1ccccc1)Nc1cccc(OCc2ccccc2)c1 (stereo unspecified) &field=growth inhibition returns -18.1

GET /value?item= `O=C(O)CNc1ncnc2[nH]ncc12` &field=growth inhibition returns -25.1

GET /value?item= N#CC(C(=N/O)/C(=N\O)C(C#N)c1ccccc1)c1ccccc1 (stereo unspecified) &field=growth inhibition returns -11.1

GET /value?item= `Cn1nc(-c2ccccc2)c(C(=O)/C=C/c2ccccc2)c(N2CCCC2)c1=O` &field=growth inhibition returns -11.2

GET /value?item= CC1(C)OC2COC(CN(N=O)C(N)=O)C2O1 (stereo unspecified) &field=growth inhibition returns -15.7

GET /value?item= `N#C/C(=C\NC(N)=S)c1nc2ccccc2s1` &field=growth inhibition returns 7.15

---

Test: NCI Yeast Anticancer Drug Screen. Data for the cln2 rad14 strain (AID 165);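 note: 0% = growth equal to vehicle treated cultures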
Settings: S. cerevisiae cln2 rad14 strain, at 50.0 µM, stronger effect = higher value
Compounds without any hit were thinned out: in the full panel of roughly 79,000, 15% have a hit.
Quantity: growth inhibition (%)
Write the answer as a number in %, unit excluded.

Check out these entries, answers already filled in.
GET /value?item= NC(CCCNc1nc(O)c(-c2ccccc2)c(=O)[nH]1)C(=O)O (stereo not given) &field=growth inhibition returns -44

GET /value?item= `CCC(=O)NC(OCC1(CC)COC1)(C(F)(F)F)C(F)(F)F` &field=growth inhibition returns 2.75

GET /value?item= `CSc1n[nH]c(NC(=O)c2ccccc2Br)n1` &field=growth inhibition returns -19.6

GET /value?item= `COc1ccccc1NCC(=O)Nn1c(C)nc2ccc(S(=O)(=O)Nc3ccccc3OC)cc2c1=O` &field=growth inhibition returns 16.2

GET /value?item= `CN(C)Cc1ccccc1COC(=O)c1ccccc1` &field=growth inhibition returns 11.4

More entries:
GET /value?item= `CCCCCCCC/C=C\CCCCCCCC(=O)N1CCN(C(=O)CCCCCCC/C=C/CCCCCCCC)C1` &field=growth inhibition returns 16.4

GET /value?item= `Cn1c(=O)c(Cl)c(N=[N+]=[N-])c2ccccc21` &field=growth inhibition returns 51

GET /value?item= `COc1ccccc1NC(=O)CC(=O)n1nc(C)c(N=Nc2ccccc2C(=O)O)c1C` &field=growth inhibition returns -14.9

GET /value?item= CC1CC[C@@]23CCC4(C)[C@@](C=CC5[C@@]6(C)CCC(=O)C(C)(C)C6CC[C@]54C)(OC2=O)[C@@H]3[C@H]1C (stereo not given in full) &field=growth inhibition returns -15.1

GET /value?item= `N=c1nc2ccc3ccccc3c2nn1-c1ccc([N+](=O)[O-])cc1` &field=growth inhibition returns -5.4

GET /value?item= CC[N+]1(C)CCC(O)(c2ccccc2)C(C(=O)c2ccccc2)C1 (stereo not given) &field=growth inhibition returns 34.1

GET /value?item= `Oc1c(O)c(O)c(O)c(O)c1O` &field=growth inhibition returns -13.9

GET /value?item= Cc1ccc(-n2cc(-c3ccc(Cl)cc3)c3c2N=CN2NC(c4ccco4)=NC32)cc1 (stereo not given) &field=growth inhibition returns -12.4

GET /value?item= `COC(=O)c1nc(N)nc(C(=O)OC)c1C(=O)c1cccc([N+](=O)[O-])c1` &field=growth inhibition returns 30.6

GET /value?item= `COc1cc2nc(Sc3c([N+](=O)[O-])ncn3C)[nH]c2cc1OC` &field=growth inhibition returns -23

GET /value?item= CCOC(=O)c1c(C)c2c(n1C)CCC(C(=O)OCC)C2=O (stereo not given) &field=growth inhibition returns 11.4

GET /value?item= `O=C(O)COc1c(Cl)cc(Cl)c2cccnc12` &field=growth inhibition returns -16.9
